Recorded values, source the RNAGym collection of RNA variant scans (doi:10.1073/pnas.2313332121).

B1: TPR t1 (parent)
chain: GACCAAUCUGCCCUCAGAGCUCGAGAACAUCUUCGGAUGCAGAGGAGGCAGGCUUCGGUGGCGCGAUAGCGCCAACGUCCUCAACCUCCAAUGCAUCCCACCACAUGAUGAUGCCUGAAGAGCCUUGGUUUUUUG

variants of: B1; assay: polymerase ribozyme fitness, log enrichment relative to wild type (log ratio); higher = more active; in vitro selection for triplet polymerase activity
Criterion: polymerase ribozyme fitness (log ratio) meeting or surpassing -3. Met: 1. Not met: -1.

>>> label_value("C53G G63C")
1

Incoming: Kindly determine if polymerase ribozyme fitness (log ratio) recorded for A74U U78G U131G is above or exactly -3.
Outgoing: 1

Incoming: Kindly determine if polymerase ribozyme fitness (log ratio) recorded for C22G C49G is above or exactly -3.
Outgoing: -1

Incoming: Kindly determine if polymerase ribozyme fitness (log ratio) recorded for A27U G107A A121U G128U G135C is above or exactly -3.
Outgoing: -1
